# System: THRa homodimer (NR concentration 90 nM)
# experiment: PBM binding z-score (relative to random genomic background probes); higher = stronger binding; sequences stand for … in GC…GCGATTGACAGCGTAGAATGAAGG
recordedEndpoint: PBM binding z-score

{"querySequence": "ATATGTTGGTTAGGGTCATTCAGAAAGTAGGGAA", "result": 3.71}
{"querySequence": "GCTTCCGGGTCAAAGGTTATAGCATGAATAGAAT", "result": 1.46}
{"querySequence": "CCTAGATGGTCAGGAGGTCACACACCGGATATGA", "result": 2.26}
{"querySequence": "CAATCTAGGTCACGAAAGGTCAAAGTCGAATGAC", "result": 3.08}
{"querySequence": "TCTAGCTGGTCACGGAGGTCACACACGACGGGTA", "result": 2.27}
{"querySequence": "ATATGGAGGTTAGGGTCATTCAGAAAGTAGGGAA", "result": 3.55}
{"querySequence": "CGAACTAGGTCAAAGGACAGAGAAAGGCGACGTA", "result": 0.0564}
{"querySequence": "CGTCCAAGGTCAATGCAAGGTCAGTGAAAGCATT", "result": 4.02}

Next up:
Query: PBM binding z-score; subject: CCGTGTAGGTTACGAGGGGGCATTCAGTGCGAAT 1.23
